- Substrate: OCCO
- ASSAY_METHOD_TEXT: purified protein
- Type: biochemical, Paracoccus denitrificans
- ASSAY_CONTEXT: 100 mM glycine-NaOH pH 10, 2.4 mM NAD+, 30 °C, oxidation
PROPERTY: kcat/Km

>>> result("EtgB (Paracoccus denitrificans PD1222; T44S) (protein, pET16b, His-tagged, E. coli BL21 AI, Ni-NTA purified; homotetramer; zinc-dependent medium-chain alcohol dehydrogenase) MAKTMKAAVVREFGKPLTIDEVPVPEPGPGMIQVRIQASGVCHSDLHAAEGDWPVKPNPPFIPGHEGVGFVSAVGAGVKHVKEGDRVGVPWLYTACGHCRHCLGGWETLCESQLNTGYSVNGGFADYVVADPNYVGHLPKNVDFLDIAPVLCAGVTVYKGLKVTDTKPGDWVVISGIGGLGHMAVQYAKAMGMNVAAVDIDDEKLALARKLGATVTVNAATEPDPAAAIRKQTDGGAQGVLVTAVGRKAFEQAIGMVARGGTVALNGLPPGDFPLDIFGMVLNGITVRGSIVGTRLDLQESLDFAGDGKVKATVHKAKLEDINNIFGQMHKGQIEGRMVLDMAG")
"70.2 M⁻¹ s⁻¹"
>>> result("EtgB, NAD-dependent alcohol dehydrogenase (Pden_2367) (enzyme, Paracoccus denitrificans DSM 413, The enzyme holds zinc ions; also called EtgB WT; alcohol dehydrogenase EtgB; source: E. coli BL21 AI, purified (Ni-NTA, desalting, size exclusion on Superdex 200 Increase)) MAKTMKAAVVREFGKPLTIDEVPVPEPGPGMIQVRIQASGVCHTDLHAAEGDWPVKPNPPFIPGHEGVGFVSAVGAGVKHVKEGDRVGVPWLYTACGHCRHCLGGWETLCESQLNTGYSVNGGFADYVVADPNYVGHLPKNVDFLDIAPVLCAGVTVYKGLKVTDTKPGDWVVISGIGGLGHMAVQYAKAMGMNVAAVDIDDEKLALARKLGATVTVNAATEPDPAAAIRKQTDGGAQGVLVTAVGRKAFEQAIGMVARGGTVALNGLPPGDFPLDIFGMVLNGITVRGSIVGTRLDLQESLDFAGDGKVKATVHKAKLEDINNIFGQMHKGQIEGRMVLDMAG")
"651 M⁻¹ s⁻¹"
>>> result("EtgB (Paracoccus denitrificans PD1222; H47N/T44S) (protein, pET16b, His-tagged, E. coli BL21 AI, Ni-NTA purified; homotetramer; zinc-dependent medium-chain alcohol dehydrogenase) MAKTMKAAVVREFGKPLTIDEVPVPEPGPGMIQVRIQASGVCHSDLNAAEGDWPVKPNPPFIPGHEGVGFVSAVGAGVKHVKEGDRVGVPWLYTACGHCRHCLGGWETLCESQLNTGYSVNGGFADYVVADPNYVGHLPKNVDFLDIAPVLCAGVTVYKGLKVTDTKPGDWVVISGIGGLGHMAVQYAKAMGMNVAAVDIDDEKLALARKLGATVTVNAATEPDPAAAIRKQTDGGAQGVLVTAVGRKAFEQAIGMVARGGTVALNGLPPGDFPLDIFGMVLNGITVRGSIVGTRLDLQESLDFAGDGKVKATVHKAKLEDINNIFGQMHKGQIEGRMVLDMAG")
"251 M⁻¹ s⁻¹"
>>> result("EtgB (Paracoccus denitrificans PD1222; H47N) (protein, pET16b, His-tagged, E. coli BL21 AI, Ni-NTA purified; homotetramer; zinc-dependent medium-chain alcohol dehydrogenase) MAKTMKAAVVREFGKPLTIDEVPVPEPGPGMIQVRIQASGVCHTDLNAAEGDWPVKPNPPFIPGHEGVGFVSAVGAGVKHVKEGDRVGVPWLYTACGHCRHCLGGWETLCESQLNTGYSVNGGFADYVVADPNYVGHLPKNVDFLDIAPVLCAGVTVYKGLKVTDTKPGDWVVISGIGGLGHMAVQYAKAMGMNVAAVDIDDEKLALARKLGATVTVNAATEPDPAAAIRKQTDGGAQGVLVTAVGRKAFEQAIGMVARGGTVALNGLPPGDFPLDIFGMVLNGITVRGSIVGTRLDLQESLDFAGDGKVKATVHKAKLEDINNIFGQMHKGQIEGRMVLDMAG")
"274 M⁻¹ s⁻¹"

These data points were gathered from paper PMC12214560.
